target: serum sample IHUS#B09032311A3 (pre-existing antibodies against ISV); assay: ECL drug displacement assay, variant as competitor against labelled SEQ ID NO:1
Provide the reported ECLU confirmatory assay of each item.
# number then unit; no other words

// below: answered binders
BINDER	ECLU confirmatory assay
Example 1C: wildtype (VHH) VHH: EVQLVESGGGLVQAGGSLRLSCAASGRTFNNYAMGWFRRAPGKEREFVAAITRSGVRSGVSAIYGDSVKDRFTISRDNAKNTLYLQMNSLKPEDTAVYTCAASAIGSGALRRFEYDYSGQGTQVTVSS	1780 ECLU
Example 1C: (A14P, K83R, Q108L) (VHH) VHH: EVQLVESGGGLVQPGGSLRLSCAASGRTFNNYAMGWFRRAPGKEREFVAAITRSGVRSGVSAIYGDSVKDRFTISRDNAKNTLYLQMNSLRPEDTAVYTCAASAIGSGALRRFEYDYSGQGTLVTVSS	156 ECLU
Example 1C: (Q108L) (VHH) VHH: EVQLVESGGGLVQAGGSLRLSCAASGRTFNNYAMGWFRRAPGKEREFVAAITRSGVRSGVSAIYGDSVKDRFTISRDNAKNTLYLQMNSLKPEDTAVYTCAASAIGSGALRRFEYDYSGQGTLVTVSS	1530 ECLU

Memo: Example 1C: (A14P, R39Q, K83R, T91Y, Q108L)-QA (VHH) VHH: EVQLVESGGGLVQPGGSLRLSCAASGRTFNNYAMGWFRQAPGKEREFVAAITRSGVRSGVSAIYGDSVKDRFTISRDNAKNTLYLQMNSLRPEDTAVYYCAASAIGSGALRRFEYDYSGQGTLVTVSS , reported ECLU confirmatory assay: 1810 ECLU
